methodDescription: small-molecule microarray binders of probe aCHRDL2, primary screen, biochemical, biotinylated probe, 635/667 nm fluorescence (AID 1100)
studyConditions: higher = more signal
Response field class: enum, chosen by comparing composite z-score against low value: < 0.06; medium value: ≥ 0.06 and < 0.4; high value: ≥ 0.4

Here's what some known entries look like.
{"columns": ["compound", "cat"],
 "data": [
  ["C=CCOC(=O)[C@H]1[C@@H]2C(=O)O[C@@H](c3ccccc3)[C@@H](c3ccccc3)N2[C@@H](c2ccc(OCCOC(=O)[C@H]3C[C@H]4C(=O)N[C@@H](Cc5ccccc5)C(=O)N4[C@H]3c3ccc(O)cc3)cc2)[C@]12C(=O)Nc1ccc(I)cc12", "low value"],
  ["CC(C)C(=C=CC[C@@H](O)c1ccccc1OCCO)C[C@@H](O)COCc1ccccc1", "medium value"]
]}

Determine which band this compound sits in: "NC(=O)NCC#Cc1ccc2c(c1)[C@]1(C(=O)N2)[C@H](C(=O)Nc2nc3ccccc3s2)[C@H]2C(=O)O[C@H](c3ccccc3)[C@H](c3ccccc3)N2[C@@H]1c1ccc(O)cc1"
medium value

Determine which band this compound sits in: "COc1cc(CO)cc(I)c1O[C@H]1C=C(C(=O)NCCO)C[C@@H](NCc2ccccc2F)[C@@H]1O"
low value

Determine which band this compound sits in: "COCCOC(=O)N1C(=O)[C@@]2(c3cc(C#Cc4ccc(OC)cc4)ccc31)[C@H](C(=O)N1CCCCCCC1)[C@H]1C(=O)O[C@H](c3ccccc3)[C@H](c3ccccc3)N1[C@@H]2c1ccc(O)cc1"
high value

Value source: PubChem BioAssay
